Molecular target: Recombinant Human NF-kappaB-Inducing Kinase (NIK/MAP3K14) (Homo sapiens)
Assay: Inhibition of auto-phosphorylation of recombinant human NIK/MAP3K14 activity (AlphaScreen)
Settings: 5 μM ATP, 1 nM NIK, average if tested more than once
parameterMeasured: IC50

State the recorded IC50 for this entry: Cc1nn(C)cc1CNc1nccc(-c2csc(-c3cccc([C@]4(O)CCN(C)C4=O)c3)n2)n1 [Example 210]
< 100 nM

Consider the compound shown here: CN1CC[C@@](O)(c2cccc(-c3nc(-c4ccnc(N[C@H]5CCCc6cn[nH]c65)n4)cs3)c2)C1=O (single isomer, unassigned) [Example 136] What is its recorded IC50?
100 to 500 nM

Quick one: IC50 for C[C@H](Nc1nccc(-c2csc(-c3cccc([C@]4(O)CCN(C)C4=O)c3)n2)n1)c1cn[nH]c1 (single isomer, unassigned) [Example 138] ?
< 100 nM

// returns reported IC50 for input CN1CC[C@@](O)(c2cccc(-c3nc(-c4ccnc(Nc5cccc(OC(F)F)n5)n4)cs3)c2)C1=O [Example 168]
< 100 nM

What IC50 value was documented for this compound, COc1nn(CC(F)F)cc1Nc1nccc(-n2ccc(-c3cncc([C@]4(O)CCN(C)C4=O)c3)n2)n1 (single isomer, unassigned) [Example 150] ?
< 100 nM

# get_value(readout='IC50', item= CN1CC[C@@](O)(c2cccc(-c3nc(-c4ccnc(NC5CCOCC5)n4)cs3)c2)C1=O [Example 181] )
100 to 500 nM

* * *

Target: Recombinant Human NF-kappaB-Inducing Kinase (NIK/MAP3K14) (Homo sapiens, UniProt Q99558)
Sequence (Q99558 whole entry): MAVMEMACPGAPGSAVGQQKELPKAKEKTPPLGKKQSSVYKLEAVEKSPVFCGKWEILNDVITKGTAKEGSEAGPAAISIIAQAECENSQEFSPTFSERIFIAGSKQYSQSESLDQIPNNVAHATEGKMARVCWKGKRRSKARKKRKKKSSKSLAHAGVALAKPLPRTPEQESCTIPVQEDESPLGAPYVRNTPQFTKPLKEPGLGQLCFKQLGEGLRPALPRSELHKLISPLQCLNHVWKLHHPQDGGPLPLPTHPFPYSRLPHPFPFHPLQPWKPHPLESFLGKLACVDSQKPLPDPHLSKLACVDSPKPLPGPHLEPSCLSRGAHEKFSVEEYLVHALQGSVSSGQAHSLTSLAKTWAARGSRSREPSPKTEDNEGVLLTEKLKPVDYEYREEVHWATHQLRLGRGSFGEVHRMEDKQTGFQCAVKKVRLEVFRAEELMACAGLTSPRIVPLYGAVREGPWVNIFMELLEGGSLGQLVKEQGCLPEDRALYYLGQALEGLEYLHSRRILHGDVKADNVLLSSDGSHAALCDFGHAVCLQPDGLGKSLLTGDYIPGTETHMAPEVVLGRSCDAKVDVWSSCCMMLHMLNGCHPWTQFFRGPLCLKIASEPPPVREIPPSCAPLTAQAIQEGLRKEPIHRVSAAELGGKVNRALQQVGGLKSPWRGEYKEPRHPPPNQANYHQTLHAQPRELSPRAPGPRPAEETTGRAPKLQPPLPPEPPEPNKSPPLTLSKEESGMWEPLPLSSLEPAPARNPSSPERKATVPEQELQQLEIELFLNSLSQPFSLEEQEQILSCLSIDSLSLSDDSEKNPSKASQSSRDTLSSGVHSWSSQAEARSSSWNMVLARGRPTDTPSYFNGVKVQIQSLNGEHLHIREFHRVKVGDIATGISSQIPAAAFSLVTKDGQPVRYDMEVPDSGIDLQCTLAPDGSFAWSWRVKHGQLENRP
Test: Inhibition of auto-phosphorylation of recombinant human NIK/MAP3K14 activity (AlphaScreen)
Details: 5 μM ATP, 1 nM NIK, average if tested more than once
pIC50: −log10 of the molar value.
parameterMeasured: pIC50

Lookup: pIC50 / Recombinant Human NF-kappaB-Inducing Kinase (NIK/MAP3K14) (Homo sapiens, UniProt Q99558) / CN1C[C@H](Nc2nccc(-c3csc(-c4cccc([C@]5(O)CCN(C)C5=O)c4)n3)n2)CC1=O (single isomer, unassigned)
6.30 to 7.00

Item: CN1CC[C@@](O)(c2cccc(-c3nc(-c4ccnc(NCCCS(C)(=O)=O)n4)cs3)c2)C1=O Test system: Recombinant Human NF-kappaB-Inducing Kinase (NIK/MAP3K14) (Homo sapiens, UniProt Q99558) Read-out: pIC50 Value: ?
6.30 to 7.00

Observed pIC50 on Recombinant Human NF-kappaB-Inducing Kinase (NIK/MAP3K14) (Homo sapiens, UniProt Q99558) for CN1CC[C@@](O)(c2cccc(-c3nc(-c4ccnc(Nc5ccn(C(C)(C)C)n5)n4)cs3)c2)C1=O , please.
> 7.00

Request body: readout pIC50, system Recombinant Human NF-kappaB-Inducing Kinase (NIK/MAP3K14) (Homo sapiens, UniProt Q99558), query CN1CC[C@@](O)(c2cccc(-c3nc(-c4ccnc(NC5(c6ncccn6)CC5)n4)cs3)c2)C1=O . Return the value.
< 6.30

Write down the reported pIC50 of CN1CC[C@@](O)(c2cncc(-c3ccn(-c4ccnc(Nc5cnn6cccnc56)n4)n3)c2)C1=O (single isomer, unassigned) , test system: Recombinant Human NF-kappaB-Inducing Kinase (NIK/MAP3K14) (Homo sapiens, UniProt Q99558).
> 7.00

What is its pIC50 for Recombinant Human NF-kappaB-Inducing Kinase (NIK/MAP3K14) (Homo sapiens, UniProt Q99558)? Entry: CN1CC[C@@](O)(c2ccnc(-c3ccn(-c4ccnc(Nc5cnn6cccnc56)n4)n3)c2)C1=O (single isomer, unassigned)
> 7.00

Find pIC50 (Recombinant Human NF-kappaB-Inducing Kinase (NIK/MAP3K14) (Homo sapiens, UniProt Q99558)) for the entry CN1CC[C@@](O)(c2cccc(-c3ccn(-c4ccnc(Nc5cnn(C)c5)n4)n3)c2)C1=O
> 7.00

Return pIC50 measured with Recombinant Human NF-kappaB-Inducing Kinase (NIK/MAP3K14) (Homo sapiens, UniProt Q99558) given this molecule: CN1CC[C@@](O)(c2cccc(-c3nc(-c4ccnc(NC5[C@@H]6COC[C@@H]56)n4)cs3)c2)C1=O (stereo partly drawn)
6.30 to 7.00

Requested read-out pIC50, target or system Recombinant Human NF-kappaB-Inducing Kinase (NIK/MAP3K14) (Homo sapiens, UniProt Q99558), entry CN1CC[C@@](O)(c2cccc(-c3nc(-c4ccnc(Nc5cn(CC(F)F)nc5OC5CC5)n4)cs3)c2)C1=O
> 7.00

For the record CN1C(=O)[C@@](O)(c2ccnc(-c3csc(-c4ccnc(Nc5ccn(C)n5)n4)n3)c2)C[C@@H]1C(F)(F)F (single isomer, unassigned) , what value of pIC50 is listed for Recombinant Human NF-kappaB-Inducing Kinase (NIK/MAP3K14) (Homo sapiens, UniProt Q99558)?
6.30 to 7.00

I'm curious: which pIC50 was measured for CC(Nc1nccc(-c2nc(-c3cc([C@]4(O)CCN(C)C4=O)ccn3)cs2)n1)c1cnn(C)c1 (single isomer, unassigned) tested on Recombinant Human NF-kappaB-Inducing Kinase (NIK/MAP3K14) (Homo sapiens, UniProt Q99558)?
> 7.00

Checklist item: pIC50 tested on Recombinant Human NF-kappaB-Inducing Kinase (NIK/MAP3K14) (Homo sapiens, UniProt Q99558), entry CN1CC(Nc2nccc(-c3csc(-c4cccc([C@]5(O)CCN(C)C5=O)c4)n3)n2)CCC1=O (stereo partly drawn) , value?
> 7.00

Enter reported pIC50 observed with Recombinant Human NF-kappaB-Inducing Kinase (NIK/MAP3K14) (Homo sapiens, UniProt Q99558) for CCn1cc(Nc2nccc(-c3csc(-c4cccc([C@]5(O)CCN(C)C5=O)c4)n3)n2)cn1
> 7.00

Item COCCn1nc(C)cc1Nc1nccc(-c2csc(-c3cccc([C@]4(O)CCN(C)C4=O)c3)n2)n1 with Recombinant Human NF-kappaB-Inducing Kinase (NIK/MAP3K14) (Homo sapiens, UniProt Q99558) - pIC50?
< 6.30

Hello, I am looking for reported pIC50 with Recombinant Human NF-kappaB-Inducing Kinase (NIK/MAP3K14) (Homo sapiens, UniProt Q99558) for CN1CC[C@@](O)(c2ccnc(-c3csc(-c4ccnc(Nc5cnn(C)c5)n4)n3)c2)C1=O (single isomer, unassigned) . Could you help?
> 7.00

Lab note: need pIC50 with Recombinant Human NF-kappaB-Inducing Kinase (NIK/MAP3K14) (Homo sapiens, UniProt Q99558) for entry CN1CC[C@@](O)(c2cncc(-c3ccn(-c4ccnc(Nc5cnn6ccccc56)n4)n3)c2)C1=O (single isomer, unassigned) , please look it up.
> 7.00

Hello, I am looking for reported pIC50 with Recombinant Human NF-kappaB-Inducing Kinase (NIK/MAP3K14) (Homo sapiens, UniProt Q99558) for COC[C@H](Nc1nccc(-c2nc(-c3cccc([C@]4(O)CCN(C)C4=O)c3)cs2)n1)c1ccnn1C (single isomer, unassigned) . Could you help?
> 7.00

Please provide the recorded pIC50 for Cc1ncc(CNc2nccc(-c3csc(-c4cccc([C@]5(O)CCN(C)C5=O)c4)n3)n2)o1 , tested on Recombinant Human NF-kappaB-Inducing Kinase (NIK/MAP3K14) (Homo sapiens, UniProt Q99558).
> 7.00

Give the reported pIC50 for CN1CC[C@@](O)(c2cccc(-c3nc(-c4ccnc(Nc5cn(C)nc5OCC(F)F)n4)cs3)c2)C1=O (system: Recombinant Human NF-kappaB-Inducing Kinase (NIK/MAP3K14) (Homo sapiens, UniProt Q99558)).
> 7.00

Identify the measured pIC50 of CN1CC[C@@](O)(c2ccnc(-c3ccn(-c4ccnc(Nc5cn(CC(F)F)nc5OC5CC5)n4)n3)c2)C1=O (single isomer, unassigned) for Recombinant Human NF-kappaB-Inducing Kinase (NIK/MAP3K14) (Homo sapiens, UniProt Q99558).
> 7.00

Recombinant Human NF-kappaB-Inducing Kinase (NIK/MAP3K14) (Homo sapiens, UniProt Q99558) / pIC50 / Cc1cc(Nc2nccc(-c3csc(-c4cccc([C@]5(O)CCN(C)C5=O)c4)n3)n2)ncn1 : value?
> 7.00

For the record CN1CC[C@@](O)(c2cccc(-c3ccn(-c4ccnc(Nc5ccn(C)n5)n4)n3)c2)C1=O , what value of pIC50 is listed for Recombinant Human NF-kappaB-Inducing Kinase (NIK/MAP3K14) (Homo sapiens, UniProt Q99558)?
> 7.00

Hi! What's the reported pIC50 for CN1CC[C@@](O)(c2cccc(-c3ccn(-c4ccnc(NC5COC5)n4)n3)c2)C1=O on Recombinant Human NF-kappaB-Inducing Kinase (NIK/MAP3K14) (Homo sapiens, UniProt Q99558)?
> 7.00

Form field - read-out: pIC50; system: Recombinant Human NF-kappaB-Inducing Kinase (NIK/MAP3K14) (Homo sapiens, UniProt Q99558); submitted item: CN1CC[C@@](O)(c2cccc(-c3csc(-c4ccnc(Nc5cnn(CC(C)(C)O)c5)n4)n3)c2)C1=O
> 7.00

// map COc1ncccc1Nc1nccc(-c2csc(-c3cccc([C@]4(O)CCN(C)C4=O)c3)n2)n1 to recorded pIC50 (system: Recombinant Human NF-kappaB-Inducing Kinase (NIK/MAP3K14) (Homo sapiens, UniProt Q99558))
> 7.00

Kindly state the measured pIC50 obtained for CCOc1cn(C)nc1Nc1nccc(-c2csc(-c3cccc([C@]4(O)CCN(C)C4=O)c3)n2)n1 with Recombinant Human NF-kappaB-Inducing Kinase (NIK/MAP3K14) (Homo sapiens, UniProt Q99558).
> 7.00

Hello, I am looking for reported pIC50 with Recombinant Human NF-kappaB-Inducing Kinase (NIK/MAP3K14) (Homo sapiens, UniProt Q99558) for C[C@@H](Nc1nccc(-c2csc(-c3cccc([C@]4(O)CCN(C)C4=O)c3)n2)n1)c1cn[nH]c1 (single isomer, unassigned) [Example 139] . Could you help?
> 7.00

All figures here come from patent US20250304567A1.
